The measured values listed here are drawn from patent US10960004B2.

# Test Description: Pharmacokinetics of FTD and TPI in plasma of solid cancer patients given FTD/TPI combination drug, by renal function cohort
# Format: in vivo, human
# Run Conditions: human, plasma, po, 35 mg/m2, Day 1; Cohort 1: mild renal impairment (CLcr 60 to 89 mL/min); 35 mg/m^2 per once as FTD, oral, twice a day; plasma; mean
Endpoint: Cmax (ng/mL)
Report the figure in ng/mL without appending any unit label.

| Input Smiles | Cmax [ng/mL] |
| --- | --- |
| Cl.N=C1CCCN1Cc1[nH]c(=O)[nH]c(=O)c1Cl | 93.9 |

For the next question, use this compound.
Prompt: Find the recorded Cmax belonging to `O=c1[nH]c(=O)n([C@H]2C[C@H](O)[C@@H](CO)O2)cc1C(F)(F)F` and report it.
Completion: 3160

----------
# Test Description: Pharmacokinetics of FTD and TPI in plasma of solid cancer patients given FTD/TPI combination drug, by renal function cohort
# Format: in vivo, human
# Run Conditions: human, plasma, po, 35 mg/m2, Day 1; Cohort 0: normal renal function; 35 mg/m^2 per once as FTD, oral, twice a day; plasma; mean
# Description: Pharmacokinetic of FTD was studied in patients with solid cancer including colorectal cancer, when performing a treatment of repeating an administration schedule of orally administering an FTD/TPI combination drug (mixture of FTD and TPI in a molar ratio of 1:0.5) in 35 mg/m^2 per once (as FTD, the same applies hereinafter) for 5 consecutive days twice a day, followed by rest for 2 days twice, followed by rest for 14 days, and repeating this procedure as one cycle. […]
Endpoint: Cmax

| Input Smiles | Obs Value |
| --- | --- |
| O=c1[nH]c(=O)n([C@H]2C[C@H](O)[C@@H](CO)O2)cc1C(F)(F)F | 2880 ng/mL |

Prompt: Find the recorded Cmax belonging to `Cl.N=C1CCCN1Cc1[nH]c(=O)[nH]c(=O)c1Cl` and report it.
Completion: 46.5 ng/mL

----------
# Test Description: Pharmacokinetics of FTD and TPI in plasma of solid cancer patients given FTD/TPI combination drug, by renal function cohort
# Assay type: in vivo, human
# Run Conditions: human, plasma, po, 35 mg/m2, Day 1; Cohort 0: normal renal function; 35 mg/m^2 per once as FTD, oral, twice a day; plasma; mean
Endpoint: half-life (h)
Report the figure in h without appending any unit label.

| Input Smiles | Endpoint | Obs Value |
| --- | --- | --- |
| Cl.N=C1CCCN1Cc1[nH]c(=O)[nH]c(=O)c1Cl | half-life | 2.04 |

For the next question, use this molecule.
Prompt: Find the recorded half-life belonging to `O=c1[nH]c(=O)n([C@H]2C[C@H](O)[C@@H](CO)O2)cc1C(F)(F)F` and report it.
Completion: 1.26

----------
# Test Description: Pharmacokinetics of FTD and TPI in plasma of solid cancer patients given FTD/TPI combination drug, by renal function cohort
# Assay type: in vivo, human
# Run Conditions: human, plasma, po, 35 mg/m2, Day 12; Cohort 0: normal renal function; 35 mg/m^2 per once as FTD, oral, twice a day; plasma; mean; read-out: AUC0-12
In this section we review reported AUC(0-t) values for a set of compounds.
The answer consists of two parts: a number and, after it, its unit.

| Input Smiles | AUC(0-t) |
| --- | --- |
| O=c1[nH]c(=O)n([C@H]2C[C@H](O)[C@@H](CO)O2)cc1C(F)(F)F | 20100 ng·h/mL |

For the next question, use this compound.
Prompt: Find the recorded AUC(0-t) belonging to `Cl.N=C1CCCN1Cc1[nH]c(=O)[nH]c(=O)c1Cl` and report it.
Completion: 247 ng·h/mL
